Where these numbers come from: patent US20240092922A1

Below: a set of entries, each annotated with reported kon.
# tested_on: T1, Histidine-tagged human 4-1BB protein (h4-1BB-His) (human, UniProt Q07011 24-186)
# T1 construct: not shown: histidine tag
# test_method_notes: SPR (Biacore T200), antibody on Protein A chip, h4-1BB-His injected;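 further: dissociation phase followed for 300 s, Kd derived as koff divided by kon from the kinetic fit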
Give the number; M⁻¹ s⁻¹ is assumed, so skip it.

Worked examples, 2 binders total:
>  <binder>
5F9-H2K1-IgG4 (antibody, V domains shown, humanized) VH: QVQLKESGPGLVKPSETLSLTCTVSGFSLTTYDISWVRQPPGKGLEWLGVIWTGGGTNYNSSFMSRVTISKDTSKNQVSLKLSSVTAADTAIYYCERVDYWGQGTTVTVSS VL: DVVMTQSPLSLPVTLGQPASISCRSSQSLVHSNGNTYLHWFQQRPGQSPRLLIYKVSNRFSGVPDRFSGSGSGTAFTFKISRVEAEDVGVYYCSQNTHVPWTFGGGTKVEIK

>  <kon / M⁻¹ s⁻¹>
202000

$$$$
>  <binder>
1C4-H3K4-IgG4 (antibody, V domains shown, humanized) VH: QVQMVQSGAEVKKPGASVKLSCKASGFTFSSSYINWLRQAPGQSLEWIGWIFAGTGGTYYNQKFTGRAQITRDTSASTAYMELSSLRSEDTAIYYCARHSPRATLFDFWGQGTTLTVSS VL: EIVLTQSPATLSASPGERVTMSCRASSSVNHMHWYQQRPGFSPRAWIYATSNLASGIPARFSGSGSGTSYSLTISSLEPEDFATYYCQQWSSNPYTFGGGTKLEIK

>  <kon / M⁻¹ s⁻¹>
30000

$$$$

GET /values?readout=kon&item= 5F9-H3K2-IgG4 (antibody, V domains shown, humanized) VH: QVQLKESGPGLVKPSETLSITCTVSGFSLTTYDISWVRQPPGKGLEWLGVIWTGGGTNYNSSFMSRVTISKDNSKNQVSLKLSSVTAADTAIYYCERVDYWGQGTTLTVSS VL: DVVMTQSPLSLPVTLGQPASISCRSSQSLVHSNGNTYLHWFQQRPGQSPKLLIYKVSNRFSGVPDRFSGSGSGTAFTFKISRVEAEDVGVYYCSQNTHVPWTFGGGTKVEIK
188000
